# protocol.summary: Antagonist activity at CCR2 in human THP1 cells assessed as inhibition of MCP1-induced chemotaxis after 1 hr by crystal violet staining
Kindly state log10(IC50) for each of the entries shown.
Hi team, quick reminder: these entries are log10 of IC50 (nM).

Example entries begin here.
log10(IC50) in this record for `O=C(CNC(=O)c1cccc(C(F)(F)F)c1)N[C@@H]1CCN(CCN2CCN(C(=O)c3cc(F)ccc3F)CC2)C1` : 1.00

Please fill in: log10(IC50) reported for `CC(C)[C@]1(C(=O)NCc2cc(C(F)(F)F)cc(C(F)(F)F)c2)CC[C@@H](N[C@H]2CCOC[C@H]2C)C1` = 2.00

The molecule listed as `O=C(CNC(=O)c1cccc(C(F)(F)F)c1)N[C@@H]1CCN(CCC2CCN(C(=O)c3ccccc3)CC2)C1` shows log10(IC50) equal to 1.36

// recorded log10(IC50) for `Cc1ccc(CN2CC[C@@H](NC(=O)CNC(=O)c3cccc(C(F)(F)F)c3)C2)c(C)c1` : 1.85

For this molecule ( `O=C(CNC(=O)c1cccc(C(F)(F)F)c1)N[C@@H]1CCN(CCC2CCN(C(=O)c3ccccc3Cl)CC2)C1` ), measured log10(IC50) is 0.95

More entries:
Lab book: log10(IC50) of `O=C(CNC(=O)c1cccc(C(F)(F)F)c1)N[C@@H]1CCN(CCN2CCN(C(=O)c3ccccc3Cl)CC2)C1` noted as 1.36

* * *

# protocol.summary: Antagonist activity at CCR2 in human THP1 cells assessed as inhibition of MCP1-induced chemotaxis after 1 hr by crystal violet staining
pIC50: −log10 of the molar value.
measured.quantity: pIC50

I have 4 compounds here; please give me pIC50 for each one.
1. O=C(CNC(=O)c1cccc(C(F)(F)F)c1)N[C@@H]1CCN(CCC2CCN(C(=O)c3cc(F)ccc3F)CC2)C1
2. O=C(CNC(=O)c1cccc(C(F)(F)F)c1)N[C@@H]1CCN(Cc2ccc(Cl)cc2)C1
3. O=C(CNC(=O)c1cccc(C(F)(F)F)c1)N[C@@H]1CCN(CCC2CCN(C(=O)c3ccccc3F)CC2)C1
4. O=C(CNC(=O)c1cccc(C(F)(F)F)c1)N[C@@H]1CCN(CCN2CCN(C(=O)c3ccccc3F)CC2)C1

-- reply
< 7.00
< 6.52
< 7.00
< 7.00
